Listing: remaining activity at 1000 µM of selected molecules
system_under_test: ethyl 4-chloroacetoacetate reductase (Kluyveromyces lactis)
Construct: almost single band, about 190 kDa on SDS-PAGE
Sequence (Q6CT25 1-1893): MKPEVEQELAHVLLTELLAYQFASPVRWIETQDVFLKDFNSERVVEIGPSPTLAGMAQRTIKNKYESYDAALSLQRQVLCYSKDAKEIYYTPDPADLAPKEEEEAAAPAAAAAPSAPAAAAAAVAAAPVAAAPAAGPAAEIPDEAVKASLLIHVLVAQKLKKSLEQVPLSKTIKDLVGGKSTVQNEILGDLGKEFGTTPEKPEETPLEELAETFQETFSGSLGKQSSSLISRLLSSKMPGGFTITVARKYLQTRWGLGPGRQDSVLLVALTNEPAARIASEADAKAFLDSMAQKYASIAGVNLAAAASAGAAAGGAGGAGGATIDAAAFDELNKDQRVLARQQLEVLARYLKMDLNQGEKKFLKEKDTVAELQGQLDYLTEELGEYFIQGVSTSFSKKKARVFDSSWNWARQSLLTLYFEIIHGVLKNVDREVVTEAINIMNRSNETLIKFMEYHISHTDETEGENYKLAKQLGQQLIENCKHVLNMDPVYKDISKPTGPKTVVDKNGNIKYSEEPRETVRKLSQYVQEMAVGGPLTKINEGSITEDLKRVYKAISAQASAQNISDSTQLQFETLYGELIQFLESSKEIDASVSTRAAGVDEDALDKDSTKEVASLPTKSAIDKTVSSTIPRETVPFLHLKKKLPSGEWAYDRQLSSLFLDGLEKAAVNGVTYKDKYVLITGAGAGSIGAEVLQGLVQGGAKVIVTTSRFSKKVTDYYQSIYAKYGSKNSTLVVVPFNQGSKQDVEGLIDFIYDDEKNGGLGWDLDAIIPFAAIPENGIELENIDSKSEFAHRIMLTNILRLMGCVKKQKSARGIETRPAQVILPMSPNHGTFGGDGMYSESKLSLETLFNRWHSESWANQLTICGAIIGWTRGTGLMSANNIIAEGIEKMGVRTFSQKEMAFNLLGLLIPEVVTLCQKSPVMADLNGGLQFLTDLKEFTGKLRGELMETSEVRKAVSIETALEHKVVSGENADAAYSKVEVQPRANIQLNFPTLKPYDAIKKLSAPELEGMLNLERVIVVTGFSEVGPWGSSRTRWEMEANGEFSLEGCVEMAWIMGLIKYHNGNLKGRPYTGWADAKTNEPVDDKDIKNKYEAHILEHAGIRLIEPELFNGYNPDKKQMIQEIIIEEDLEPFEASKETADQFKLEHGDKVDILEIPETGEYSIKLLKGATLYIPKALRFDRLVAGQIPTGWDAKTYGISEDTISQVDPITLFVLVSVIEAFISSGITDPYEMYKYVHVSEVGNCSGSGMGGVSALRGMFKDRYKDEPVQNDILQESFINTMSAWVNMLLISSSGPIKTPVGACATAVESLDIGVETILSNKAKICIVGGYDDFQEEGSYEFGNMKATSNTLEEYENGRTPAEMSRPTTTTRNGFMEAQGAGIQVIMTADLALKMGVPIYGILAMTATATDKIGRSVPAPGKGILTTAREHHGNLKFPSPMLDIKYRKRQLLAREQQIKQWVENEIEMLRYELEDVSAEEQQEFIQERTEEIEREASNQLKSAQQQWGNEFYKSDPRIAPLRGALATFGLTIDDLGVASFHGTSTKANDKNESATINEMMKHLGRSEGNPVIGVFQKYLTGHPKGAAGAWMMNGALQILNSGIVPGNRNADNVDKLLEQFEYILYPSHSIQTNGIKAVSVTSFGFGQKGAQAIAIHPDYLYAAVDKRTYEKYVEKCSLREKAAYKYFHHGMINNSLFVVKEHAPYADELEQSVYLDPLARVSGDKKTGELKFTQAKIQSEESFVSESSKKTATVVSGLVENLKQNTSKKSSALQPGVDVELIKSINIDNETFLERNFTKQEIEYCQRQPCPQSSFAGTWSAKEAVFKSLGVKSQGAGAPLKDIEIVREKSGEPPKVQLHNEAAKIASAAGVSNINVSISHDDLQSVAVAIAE
Sequence (Q6CWN6 1-2047 partner): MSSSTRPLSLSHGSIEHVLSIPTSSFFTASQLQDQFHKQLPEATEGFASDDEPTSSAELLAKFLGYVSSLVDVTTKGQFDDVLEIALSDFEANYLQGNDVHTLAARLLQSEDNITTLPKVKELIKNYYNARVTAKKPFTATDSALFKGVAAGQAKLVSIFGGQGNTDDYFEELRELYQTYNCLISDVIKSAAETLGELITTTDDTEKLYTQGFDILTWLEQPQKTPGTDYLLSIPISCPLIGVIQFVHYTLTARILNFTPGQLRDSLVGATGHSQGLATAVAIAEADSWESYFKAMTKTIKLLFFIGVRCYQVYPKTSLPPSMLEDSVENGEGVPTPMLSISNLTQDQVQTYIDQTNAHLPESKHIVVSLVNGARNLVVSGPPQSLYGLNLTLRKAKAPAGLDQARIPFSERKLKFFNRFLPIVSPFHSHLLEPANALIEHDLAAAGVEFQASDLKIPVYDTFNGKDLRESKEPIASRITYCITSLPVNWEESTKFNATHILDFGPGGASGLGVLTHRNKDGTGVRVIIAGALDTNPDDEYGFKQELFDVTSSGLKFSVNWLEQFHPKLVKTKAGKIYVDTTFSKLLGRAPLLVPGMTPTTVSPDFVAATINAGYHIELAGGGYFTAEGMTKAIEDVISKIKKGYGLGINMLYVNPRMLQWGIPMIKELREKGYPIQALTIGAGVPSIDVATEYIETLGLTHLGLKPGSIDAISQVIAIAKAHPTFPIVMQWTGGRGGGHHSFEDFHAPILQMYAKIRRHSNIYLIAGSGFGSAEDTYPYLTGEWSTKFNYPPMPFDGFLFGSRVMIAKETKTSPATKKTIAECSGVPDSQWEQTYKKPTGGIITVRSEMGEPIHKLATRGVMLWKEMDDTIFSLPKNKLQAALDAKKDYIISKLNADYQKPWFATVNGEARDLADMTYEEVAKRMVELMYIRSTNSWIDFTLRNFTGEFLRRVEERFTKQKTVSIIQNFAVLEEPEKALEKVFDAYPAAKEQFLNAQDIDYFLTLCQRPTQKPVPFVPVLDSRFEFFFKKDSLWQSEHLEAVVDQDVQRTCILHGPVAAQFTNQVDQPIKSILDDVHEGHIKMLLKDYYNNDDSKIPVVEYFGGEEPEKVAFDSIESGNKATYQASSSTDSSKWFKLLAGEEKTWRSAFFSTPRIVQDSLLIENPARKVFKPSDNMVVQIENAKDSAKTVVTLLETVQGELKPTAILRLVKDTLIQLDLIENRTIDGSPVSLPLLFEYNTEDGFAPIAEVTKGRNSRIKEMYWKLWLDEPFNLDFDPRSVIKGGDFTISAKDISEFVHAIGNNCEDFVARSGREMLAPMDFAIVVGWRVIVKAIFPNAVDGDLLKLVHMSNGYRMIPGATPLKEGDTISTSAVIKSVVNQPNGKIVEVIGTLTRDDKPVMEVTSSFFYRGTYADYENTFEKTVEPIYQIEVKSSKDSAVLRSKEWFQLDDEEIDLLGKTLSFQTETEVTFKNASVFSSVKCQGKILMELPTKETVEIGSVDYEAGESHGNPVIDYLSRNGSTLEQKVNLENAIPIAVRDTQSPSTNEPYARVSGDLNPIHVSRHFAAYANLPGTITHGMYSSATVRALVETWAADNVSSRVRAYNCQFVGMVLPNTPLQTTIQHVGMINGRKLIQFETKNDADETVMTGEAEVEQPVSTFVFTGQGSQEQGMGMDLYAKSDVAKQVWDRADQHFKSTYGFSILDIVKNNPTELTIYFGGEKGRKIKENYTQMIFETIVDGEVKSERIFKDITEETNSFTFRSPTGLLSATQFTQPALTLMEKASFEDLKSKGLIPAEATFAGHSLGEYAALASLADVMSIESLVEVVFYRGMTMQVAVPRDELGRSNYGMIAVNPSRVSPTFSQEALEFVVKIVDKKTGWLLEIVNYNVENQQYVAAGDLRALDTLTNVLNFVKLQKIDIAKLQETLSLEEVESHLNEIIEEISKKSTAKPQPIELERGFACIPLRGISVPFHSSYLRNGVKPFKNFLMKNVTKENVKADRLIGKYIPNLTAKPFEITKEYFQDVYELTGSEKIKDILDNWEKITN
procedure_text: Effects of various inhibitors on the ethyl 4-chloroacetoacetate-reducing activity
Type: biochemical
test_conditions: inhibitor 1 mM, 30° C., 10 min; standard conditions = 100%; read-out: Residual activity
readout_type: remaining activity at 1000 µM (%)

molecule	system_under_test	readout_type	value_measured
CCN1C(=O)C=CC1=O [N-ethylmaleimide]	ethyl 4-chloroacetoacetate reductase (Kluyveromyces lactis)	remaining activity at 1000 µM	20.1
NC(=O)CI [Iodoacetamide]	ethyl 4-chloroacetoacetate reductase (Kluyveromyces lactis)	remaining activity at 1000 µM	53.9
c1cnc2c(c1)ccc1cccnc12	ethyl 4-chloroacetoacetate reductase (Kluyveromyces lactis)	remaining activity at 1000 µM	88.3
CCC1(CC)C(=O)NC(=O)NC1=O	ethyl 4-chloroacetoacetate reductase (Kluyveromyces lactis)	remaining activity at 1000 µM	82.5
